Provide the recorded Cytotoxic CTL response, % vs WT1+ leukemia for the entries that follow.
System: WT1+ leukemia
Assay: Cr51 release assay, cytotoxic CTL response vs WT1+ leukemia expressing restricting HLA allele
Format: cell-based, human
Conditions: HLA allele A0201; 50:1 E:T
Where a SMILES comes first, the peptide text is derived from it.
Just the number in %, nothing appended.

Please look up its Cytotoxic CTL response, % vs WT1+ leukemia: CC(C)C[C@H](NC(=O)[C@H](CO)NC(=O)CNC(=O)[C@H](Cc1ccc(O)cc1)NC(=O)[C@H](C)NC(=O)[C@@H](N)CO)C(=O)NCC(=O)NCC(=O)N1CCC[C@H]1C(=O)O [SEQ ID NO: 157] (H-SAYGSLGGP-OH; N-terminus and C-terminus assumed)
0

May I ask what Cytotoxic CTL response, % vs WT1+ leukemia has been recorded for C[C@@H](O)[C@H](N)C(=O)N[C@@H](Cc1c[nH]cn1)C(=O)N[C@@H](CO)C(=O)N1CCC[C@H]1C(=O)N[C@H](C(=O)N[C@@H](Cc1c[nH]cn1)C(=O)N1CCC[C@H]1C(=O)N1CCC[C@H]1C(=O)N[C@@H](CCCNC(=N)N)C(=O)O)[C@@H](C)O [SEQ ID NO: 146] (H-THSPTHPPR-OH; N-terminus and C-terminus assumed) ?
38

Given the entry CC(C)C[C@H](NC(=O)[C@H](CO)NC(=O)[C@@H]1CCCN1C(=O)[C@@H]1CCCN1C(=O)[C@H](Cc1ccccc1)NC(=O)[C@H](Cc1c[nH]cn1)NC(=O)[C@@H]1CCCN1C(=O)[C@H](CC(C)C)NC(=O)[C@@H]1CCCN1)C(=O)O [SEQ ID NO: 144] (H-PLPHFPPSL-OH; N-terminus and C-terminus assumed) , report its measured Cytotoxic CTL response, % vs WT1+ leukemia.
22

Where these numbers come from: patent US10815274B2
